system_under_test: EGFR^L858R (Homo sapiens, UniProt P00533, L858R)
Sequence (P00533 25-1210 L858R): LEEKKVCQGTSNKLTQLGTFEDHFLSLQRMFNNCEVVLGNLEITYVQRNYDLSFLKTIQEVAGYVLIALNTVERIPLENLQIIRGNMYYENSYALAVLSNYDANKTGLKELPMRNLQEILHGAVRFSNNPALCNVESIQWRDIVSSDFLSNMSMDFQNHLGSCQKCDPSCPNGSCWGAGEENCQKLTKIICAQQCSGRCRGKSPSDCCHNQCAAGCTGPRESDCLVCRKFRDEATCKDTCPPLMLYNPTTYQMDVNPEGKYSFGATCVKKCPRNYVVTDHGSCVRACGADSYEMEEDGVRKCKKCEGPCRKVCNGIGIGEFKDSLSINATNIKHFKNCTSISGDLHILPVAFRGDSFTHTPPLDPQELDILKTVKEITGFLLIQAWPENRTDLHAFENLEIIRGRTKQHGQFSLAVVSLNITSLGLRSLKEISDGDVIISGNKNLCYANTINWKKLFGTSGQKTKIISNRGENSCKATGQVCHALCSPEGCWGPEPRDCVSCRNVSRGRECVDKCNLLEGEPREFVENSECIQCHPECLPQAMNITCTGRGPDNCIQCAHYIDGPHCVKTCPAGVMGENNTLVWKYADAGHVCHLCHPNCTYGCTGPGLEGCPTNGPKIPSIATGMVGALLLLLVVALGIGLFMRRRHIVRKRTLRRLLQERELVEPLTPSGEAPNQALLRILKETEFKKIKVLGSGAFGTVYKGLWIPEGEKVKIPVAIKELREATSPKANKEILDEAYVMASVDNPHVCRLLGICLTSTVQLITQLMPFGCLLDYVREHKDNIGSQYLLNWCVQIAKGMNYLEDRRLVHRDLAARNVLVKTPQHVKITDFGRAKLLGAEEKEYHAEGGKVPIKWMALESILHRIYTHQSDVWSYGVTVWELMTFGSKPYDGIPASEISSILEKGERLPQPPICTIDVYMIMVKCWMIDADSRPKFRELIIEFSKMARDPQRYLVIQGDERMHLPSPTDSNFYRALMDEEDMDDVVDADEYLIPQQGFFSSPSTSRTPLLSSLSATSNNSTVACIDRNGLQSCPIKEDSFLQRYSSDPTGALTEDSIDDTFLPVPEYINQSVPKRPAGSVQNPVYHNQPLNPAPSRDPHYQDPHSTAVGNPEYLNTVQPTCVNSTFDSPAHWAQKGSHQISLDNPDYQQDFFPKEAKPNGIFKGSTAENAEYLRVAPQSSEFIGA
assay_method_text: in vitro kinase assay (HTRF KinEASE-TK kit), L
condition_set: kinase inhibition
reported_endpoint: IC50

| compound | IC50 |
| --- | --- |
| C[C@H]1CCOc2c(cnn2C)-c2nccc(n2)Nc2cc3c(cn2)c(N2CC[C@H](O)C2)nn31 [(113)] | < 10 nM |
| CC1CCOc2c(cnn2C)-c2nccc(n2)Nc2cc3c(cn2)c(N2CC(C(C)(C)O)C2)nn31 (stereo not shown) [(8)] | 10 to 100 nM |
| C[C@H]1CCOc2c(cnn2C)-c2nccc(n2)Nc2cc3c(cn2)c(-c2cc(CN(C)C)ccn2)nn31 [(183)] | < 10 nM |

Kindly consider the entry below.
Input line: I have this compound here, C[C@H]1CCOc2c(cnn2C)-c2nccc(n2)Nc2cc3c(cn2)c(-c2cccc(N4CCC(N5CCOCC5)CC4)c2)nn31 [(160)] , and I need its recorded IC50.
Output line: < 10 nM
